pIC50: −log10 of the molar value.
// compounds with pIC50 on Amine oxidase [flavin-containing] A (Rattus norvegicus, UniProt P21396), multi-source literature
Sequence (P21396 whole entry): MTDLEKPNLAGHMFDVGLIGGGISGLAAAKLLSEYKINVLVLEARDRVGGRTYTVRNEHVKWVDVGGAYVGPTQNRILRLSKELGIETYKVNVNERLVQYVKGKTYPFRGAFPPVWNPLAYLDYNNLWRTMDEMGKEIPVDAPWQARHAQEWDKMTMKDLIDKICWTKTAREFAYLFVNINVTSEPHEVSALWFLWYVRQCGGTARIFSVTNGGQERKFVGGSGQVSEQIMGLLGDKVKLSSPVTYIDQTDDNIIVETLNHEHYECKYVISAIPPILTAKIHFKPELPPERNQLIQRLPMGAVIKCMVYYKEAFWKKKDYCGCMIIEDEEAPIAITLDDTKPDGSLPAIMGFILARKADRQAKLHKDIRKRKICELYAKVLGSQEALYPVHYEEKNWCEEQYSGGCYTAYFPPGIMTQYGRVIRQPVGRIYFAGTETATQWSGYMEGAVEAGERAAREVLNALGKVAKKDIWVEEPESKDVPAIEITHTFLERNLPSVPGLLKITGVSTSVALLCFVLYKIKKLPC
reported.property: pIC50

INSERT INTO assay_data (smiles_str, reported_property, experimental_value) VALUES
  ('NCc1ccncc1N(C1CCCC1)C1CCCC1', 'pIC50', '< 4.00'),
  ('Cc1c(C)c2ccc(OCc3ccc(C(C)C)cc3)c(C)c2oc1=O', 'pIC50', '< 5.00'),
  ('NCc1ccncc1NC1CCCCC1', 'pIC50', '< 4.00'),
  ('N#CCCn1nnc(-c2ccc(OCc3cccc(Cl)c3)cc2)n1', 'pIC50', '< 4.00');
